Ref: patent US11110114B2

System: DNA target 5′-dGCT GCA GGC GTC G (SEQ ID NO: 35)
Format: binding
Conditions: pH 7
In the oligonucleotide strings, read from the 5' end, every base follows the letter of its sugar. An asterisk marks phosphorothioate; unmarked linkages are phosphodiester. Other units and linkages are bracketed, terminal groups are in braces. A string of capitals states the bases alone. [tz] = triazole internucleoside linkage; l = locked nucleic acid (LNA); [5mC] = 5-methylcytosine; d = 2'-deoxy (DNA)
The entries below come with measured Tm DNA target values attached.
Expressed in °C, but write only the number.

Known Tm DNA target results, listed for orientation:
>>> numeric_readout("5′-dCGACG^MeCt^MeC^LTGCAGC (DNA dCdGdAdCdGd[5mC][tz]l[5mC]dTdGdCdAdGdC) [ON11]")
63.5
>>> numeric_readout("5′-d CGACG^MeCt^MeCTGCAGC (DNA dCdGdAdCdGd[5mC][tz]d[5mC]dTdGdCdAdGdC) [ON12]")
62

Query: Using the record for 5′-d CGACG^MeCp^MeCTGCAGC (DNA dCdGdAdCdGd[5mC]d[5mC]dTdGdCdAdGdC) [ON33, reference compound] , report its Tm DNA target.
Result: 68.7

Query: Using the record for 5′-d CGACG^MeCp^MeC^LTGCAGC (DNA dCdGdAdCdGd[5mC]l[5mC]dTdGdCdAdGdC) [ON34, reference compound] , report its Tm DNA target.
Result: 72

----------
Test system: RNA target 5′-rGCU GCA GGC GUC G (SEQ ID NO: 36)
Format: binding
Conditions: pH 7
In the oligonucleotide strings, read from the 5' end, every base follows the letter of its sugar. An asterisk marks phosphorothioate; unmarked linkages are phosphodiester. Other units and linkages are bracketed, terminal groups are in braces. A string of capitals states the bases alone. [tz] = triazole internucleoside linkage; l = locked nucleic acid (LNA); [5mC] = 5-methylcytosine; d = 2'-deoxy (DNA)
The entries below come with measured Tm RNA target values attached.
Expressed in °C, but write only the number.

Known Tm RNA target results, listed for orientation:
>>> numeric_readout("5′-d CGACG^MeCt^MeCTGCAGC (DNA dCdGdAdCdGd[5mC][tz]d[5mC]dTdGdCdAdGdC) [ON12]")
63.4
>>> numeric_readout("5′-d CGACG^MeCp^MeC^LTGCAGC (DNA dCdGdAdCdGd[5mC]l[5mC]dTdGdCdAdGdC) [ON34, reference compound]")
74.7
>>> numeric_readout("5′-dCGACG^MeCt^MeC^LTGCAGC (DNA dCdGdAdCdGd[5mC][tz]l[5mC]dTdGdCdAdGdC) [ON11]")
68.6

# next substance below
Query: Using the record for 5′-d CGACG^MeCp^MeCTGCAGC (DNA dCdGdAdCdGd[5mC]d[5mC]dTdGdCdAdGdC) [ON33, reference compound] , report its Tm RNA target.
Result: 69.1
